tested on: A375P F11s tumor cells; assay: Cell growth inhibition assay (CellTiter-Glo), A375P F11s; format: cell-based, Human; settings: Homo sapiens

>  <compound>
CCNc1nc(-c2cccc(NS(=O)(=O)c3ccccc3)c2)c(-c2ccnc(Nc3ccc(OCCN4CCCC4)c(F)c3)n2)s1 [Example 65]

>  <IC50>
100 to 1000 nM

$$$$
>  <compound>
CCc1nc(-c2cccc(NS(=O)(=O)c3ccccc3)c2)c(-c2ccnc(Nc3ccc(OC)c(N4CCN(CCS(C)(=O)=O)CC4)c3)n2)s1 [Example 5]

>  <IC50>
< 100 nM

$$$$
>  <compound>
CCc1nc(-c2cccc(CNS(=O)(=O)c3ccccc3)c2)c(-c2ccnc(Nc3ccc(N4CCOCC4)c(F)c3)n2)s1 [Example 34]

>  <IC50>
100 to 1000 nM

$$$$
>  <compound>
Cc1nc(-c2cccc(NS(=O)(=O)c3c(F)cccc3F)c2)c(-c2ccnc(Nc3ccc(N4CCOCC4)nc3)n2)s1 [Example 133]

>  <IC50>
< 100 nM

$$$$
>  <compound>
CC(C)c1nc(-c2cccc(NS(=O)(=O)c3ccccc3)c2)c(-c2ccnc(Nc3ccc(F)c(N4CCN(CCS(C)(=O)=O)CC4)c3)n2)s1 [Example 73]

>  <IC50>
< 100 nM

$$$$
>  <compound>
CC(C)c1nc(-c2ccnc(NS(=O)(=O)c3c(F)cccc3F)c2)c(-c2ccnc(Nc3ccc(N4CCN(CCF)CC4)c(F)c3)n2)s1 [Example 100]

>  <IC50>
< 100 nM

$$$$
>  <compound>
COc1ccc(S(C)(=O)=O)cc1Nc1nccc(-c2sc(N3CCOCC3)nc2-c2cccc(NS(=O)(=O)c3c(F)cccc3F)c2F)n1 [Example 157]

>  <IC50>
< 100 nM

$$$$
>  <compound>
Cc1nc(Cl)sc1S(=O)(=O)Nc1cccc(-c2nc(C(C)C)sc2-c2ccnc(Nc3ccc(N4CCOCC4)nc3)n2)c1 [Example 42]

>  <IC50>
100 to 1000 nM

$$$$
>  <compound>
O=S1(=O)Cc2ccc(Nc3nccc(-c4sc(N5CCOCC5)nc4-c4cccc(NS(=O)(=O)c5c(F)cccc5F)c4F)n3)cc2C1 [Example 155]

>  <IC50>
< 100 nM

$$$$
>  <compound>
CC(C)c1nc(-c2cccc(NS(=O)(=O)c3ccccc3)c2)c(-c2ccnc(Nc3ccc(CC4CCN(CCS(C)(=O)=O)CC4)c(F)c3)n2)s1 [Example 72]

>  <IC50>
100 to 1000 nM

$$$$
>  <compound>
CC(C)c1nc(-c2cccc(NS(=O)(=O)c3c(F)cccc3F)c2F)c(-c2ccnc(Nc3ccc(N4CCN(CCF)CC4)c(F)c3)n2)s1 [Example 29]

>  <IC50>
< 100 nM

$$$$
>  <compound>
CC(C)c1nc(-c2cc(F)c(F)c(NS(=O)(=O)c3cccc(F)c3)c2)c(-c2ccnc(Nc3ccc(N4CCN(CCF)CC4)c(F)c3)n2)s1 [Example 101]

>  <IC50>
100 to 1000 nM

$$$$
>  <compound>
O=S(=O)(Nc1cc(-c2nc(N3CCCC3)oc2-c2ccnc(Nc3ccc(N4CCN(CCF)CC4)c(F)c3)n2)ccc1F)c1c(F)cccc1F [Example 114]

>  <IC50>
100 to 1000 nM

$$$$
